Experiment: Cytotoxicity against human MT4 cells
Type: cell-based
Binary label based on CC50 with cut-off 60 µM: below gives True, not below gives False.

See these solved cases before continuing.
input_smiles=COc1ccc(OC)c2c1c(C(=O)/C=C(\O)C(=O)O)cn2Cc1ccc(F)cc1 classification=False
input_smiles=COc1cc2c(cc1Cc1cccc(Cl)c1F)c(=O)c(C(=O)O)cn2[C@H](CO)C(C)C classification=True
input_smiles=CCOC(=O)/C(O)=C/C(=O)c1cn(Cc2ccc(F)cc2)c2c(OC)ccc(OC)c12 classification=False
input_smiles=O=C(O)/C(O)=C/C(=O)c1cn(Cc2ccc(F)cc2)c2ccccc12 classification=False

Is CC50 strictly under 60 µM for the entry `COc1cccc2c1c(C(=O)/C=C(\O)C(=O)O)cn2Cc1ccc(F)cc1` ?
True

Is CC50 strictly under 60 µM for the entry `CCOC(=O)/C(O)=C/C(=O)c1cn(Cc2ccc(F)cc2)c2c(OC)cccc12` ?
False

Is CC50 strictly under 60 µM for the entry `COc1ccc2c(C(=O)/C=C(\O)C(=O)O)cn(Cc3ccc(F)cc3)c2c1` ?
False

Is CC50 strictly under 60 µM for the entry `COc1ccc2c(c1)c(C(=O)/C=C(\O)C(=O)O)cn2Cc1ccc(F)cc1` ?
False

Is CC50 strictly under 60 µM for the entry `CCOC(=O)/C(O)=C/C(=O)c1cn(Cc2ccc(F)cc2)c2ccc(OC)cc12` ?
False

* * *

Target: Human immunodeficiency virus type 1 integrase (Human immunodeficiency virus 1, UniProt Q7ZJM1)
Sequence (Q7ZJM1 whole entry): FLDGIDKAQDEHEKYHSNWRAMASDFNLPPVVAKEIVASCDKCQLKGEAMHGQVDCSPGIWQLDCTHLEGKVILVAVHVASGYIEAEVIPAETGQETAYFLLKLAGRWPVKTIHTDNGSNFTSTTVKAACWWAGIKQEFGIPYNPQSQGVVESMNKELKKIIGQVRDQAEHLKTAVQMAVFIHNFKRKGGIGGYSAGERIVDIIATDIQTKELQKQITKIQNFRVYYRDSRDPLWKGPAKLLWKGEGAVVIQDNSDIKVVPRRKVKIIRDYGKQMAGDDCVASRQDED
pIC50: −log10 of the molar value.
Assign class by pIC50: not lower than 6 means Condition met; lower than 6 means Condition not met.

input_smiles=COc1cccc2c1c(C(=O)/C=C(\O)C(=O)O)cn2Cc1ccc(F)cc1 classification="Condition met"
input_smiles=COc1ccc2c(c1)c(C(=O)/C=C(\O)C(=O)O)cn2Cc1ccc(F)cc1 classification="Condition met"
input_smiles=CCOC(=O)/C(O)=C/C(=O)c1cn(Cc2ccc(F)cc2)c2cc(OC)ccc12 classification="Condition not met"
input_smiles=CCOC(=O)/C(O)=C/C(=O)c1cn(Cc2ccc(F)cc2)c2cccc(OC)c12 classification="Condition not met"
input_smiles=COc1ccc(OC)c2c1c(C(=O)/C=C(\O)C(=O)O)cn2Cc1ccc(F)cc1 classification="Condition met"

I'd appreciate it if you could say whether `CCOC(=O)/C(O)=C/C(=O)c1cn(Cc2ccc(F)cc2)c2c(OC)cccc12` has pIC50 at least equal to 6.
Condition not met

I'd appreciate it if you could say whether `COc1ccc2c(C(=O)/C=C(\O)C(=O)O)cn(Cc3ccc(F)cc3)c2c1` has pIC50 at least equal to 6.
Condition met

I'd appreciate it if you could say whether `O=C(O)/C(O)=C/C(=O)c1cn(Cc2ccc(F)cc2)c2ccccc12` has pIC50 at least equal to 6.
Condition not met

I'd appreciate it if you could say whether `CCOC(=O)/C(O)=C/C(=O)c1cn(Cc2ccc(F)cc2)c2ccc(OC)cc12` has pIC50 at least equal to 6.
Condition not met

I'd appreciate it if you could say whether `COc1cccc2c(C(=O)/C=C(\O)C(=O)O)cn(Cc3ccc(F)cc3)c12` has pIC50 at least equal to 6.
Condition met

* * *

// reported IC50 per item
Target: Human immunodeficiency virus type 1 integrase (Human immunodeficiency virus 1, UniProt Q7ZJM1)
State just the number; it will be interpreted in nM.

input_smiles=CCOC(=O)/C(O)=C/C(=O)c1cn(Cc2ccc(F)cc2)c2ccc(OC)cc12 reading_unit=nM observed_measurement=4600
input_smiles=COc1cccc2c1c(C(=O)/C=C(\O)C(=O)O)cn2Cc1ccc(F)cc1 reading_unit=nM observed_measurement=80

The record that follows has no IC50 shown yet.
Fill in reported IC50 for this entry: `COc1ccc(OC)c2c1c(C(=O)/C=C(\O)C(=O)O)cn2Cc1ccc(F)cc1`
60

* * *

Assay: Cytotoxicity against human MT4 cells
Assay type: cell-based
// reported CC50 per item
State just the number; it will be interpreted in µM.

input_smiles=COc1cccc2c(C(=O)/C=C(\O)C(=O)O)cn(Cc3ccc(F)cc3)c12 measure_name=CC50 observed_measurement=82.9

Fill in reported CC50 for this entry: `CCOC(=O)/C(O)=C/C(=O)c1cn(Cc2ccc(F)cc2)c2cc(OC)ccc12`
100

Fill in reported CC50 for this entry: `CCOC(=O)/C(O)=C/C(=O)c1cn(Cc2ccc(F)cc2)c2cccc(OC)c12`
74

* * *

// reported pIC50 per item
Biological target: Human immunodeficiency virus type 1 integrase (Human immunodeficiency virus 1)
// pIC50 is dimensionless: -log10 of concentration (M)

Recorded results for 5 compounds are shown here.
input_smiles=CCOC(=O)/C(O)=C/C(=O)c1cn(Cc2ccc(F)cc2)c2cccc(OC)c12 system="Human immunodeficiency virus type 1 integrase (Human immunodeficiency virus 1)" observed_measurement=4.07
input_smiles=COc1cccc2c(C(=O)/C=C(\O)C(=O)O)cn(Cc3ccc(F)cc3)c12 system="Human immunodeficiency virus type 1 integrase (Human immunodeficiency virus 1)" observed_measurement=6.57
input_smiles=CCOC(=O)/C(O)=C/C(=O)c1cn(Cc2ccc(F)cc2)c2c(OC)ccc(OC)c12 system="Human immunodeficiency virus type 1 integrase (Human immunodeficiency virus 1)" observed_measurement=5.91
input_smiles=COc1ccc2c(C(=O)/C=C(\O)C(=O)O)cn(Cc3ccc(F)cc3)c2c1 system="Human immunodeficiency virus type 1 integrase (Human immunodeficiency virus 1)" observed_measurement=6.72
input_smiles=CCOC(=O)/C(O)=C/C(=O)c1cn(Cc2ccc(F)cc2)c2c(OC)cccc12 system="Human immunodeficiency virus type 1 integrase (Human immunodeficiency virus 1)" observed_measurement=5.32

Fill in reported pIC50 for this entry: `CCOC(=O)/C(O)=C/C(=O)c1cn(Cc2ccc(F)cc2)c2cc(OC)ccc12`
5.71

Fill in reported pIC50 for this entry: `COc1ccc2c(c1)c(C(=O)/C=C(\O)C(=O)O)cn2Cc1ccc(F)cc1`
6.52

Fill in reported pIC50 for this entry: `O=C(O)/C(O)=C/C(=O)c1cn(Cc2ccc(F)cc2)c2ccccc12`
6.07
